molecular target: Microtubule-associated protein tau (Homo sapiens, UniProt P10636)
Sequence (P10636 whole entry): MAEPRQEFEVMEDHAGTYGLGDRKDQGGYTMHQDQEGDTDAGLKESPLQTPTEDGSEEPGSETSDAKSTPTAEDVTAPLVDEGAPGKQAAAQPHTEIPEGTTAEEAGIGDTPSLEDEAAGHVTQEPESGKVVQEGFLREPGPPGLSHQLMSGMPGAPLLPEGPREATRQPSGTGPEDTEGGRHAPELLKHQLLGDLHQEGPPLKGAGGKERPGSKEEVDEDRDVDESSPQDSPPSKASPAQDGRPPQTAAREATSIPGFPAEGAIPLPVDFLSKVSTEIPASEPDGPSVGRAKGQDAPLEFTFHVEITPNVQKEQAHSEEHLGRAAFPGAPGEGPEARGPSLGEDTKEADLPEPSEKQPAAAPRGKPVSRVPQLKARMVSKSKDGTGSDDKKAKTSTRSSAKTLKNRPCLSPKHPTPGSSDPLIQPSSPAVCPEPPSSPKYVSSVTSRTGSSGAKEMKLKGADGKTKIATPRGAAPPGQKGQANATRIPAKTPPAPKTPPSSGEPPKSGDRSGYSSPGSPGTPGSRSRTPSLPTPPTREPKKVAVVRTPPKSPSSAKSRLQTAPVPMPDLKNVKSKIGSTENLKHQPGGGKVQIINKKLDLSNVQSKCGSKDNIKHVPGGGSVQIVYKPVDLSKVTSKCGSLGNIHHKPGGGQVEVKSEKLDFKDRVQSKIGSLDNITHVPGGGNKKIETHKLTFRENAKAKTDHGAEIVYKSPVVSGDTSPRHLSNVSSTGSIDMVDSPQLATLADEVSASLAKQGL
assayReadout: IC50 (nM)

P = Fc1ncccc1-c1ccc2c(n1)[nH]c1ccncc12
Q = Fc1ncccc1-c1ccc2c(n1)[nH]c1cccnc12
[ask] Lowest IC50? choose P or Q Please respond with the label that marks your chosen entry.
[reply] P
(P: 15.5 nM, Q: 559 nM)

P = Fc1cc(-c2cc3[nH]c4ccncc4c3cn2)ccn1
Q = Fc1ncccc1-c1cc2[nH]c3ccncc3c2cn1
[ask] Would you let me know which has the greater IC50 value, P or Q ? Please respond with the label that marks your chosen entry.
[reply] Q

I = Fc1ncccc1-c1ccc2c(c1)[nH]c1ccncc12
II = Fc1cc(-c2ccc3c(n2)[nH]c2cnccc23)ccn1
[ask] Would you let me know which has the greater IC50 value, I or II ? Please respond with the label that marks your chosen entry.
[reply] II

a = Fc1cc(-c2nc3[nH]c4ccncc4c3s2)ccn1
b = Fc1cc(-c2ccc3c(c2)[nH]c2ccncc23)ccn1
[ask] Would you let me know which has the greater IC50 value, a or b ? Please respond with the label that marks your chosen entry.
[reply] a
(a: 18 nM, b: 3.1 nM)
